system: Lefty1; test: Lefty1 binders on small-molecule microarrays, primary screen, biochemical, small-molecule microarray, 635/667 nm fluorescence (AID 1139); details: small-molecule microarray binding, fluorescence 635/667; higher = more signal
Lab note: anything with composite z-score at or over 0.6 counts as yes (1); the rest go in no (0).

Incoming: Does the reported composite z-score for CC#CCO[Si](C#CCCCCCC)(C(C)C)C(C)C fall at or above the 0.6 mark?
Outgoing: no (0)

Incoming: Does the reported composite z-score for CCCCC(=C=CC[C@@H](O)c1cccc(OCCO)c1)C[C@@H](O)COCc1ccccc1 fall at or above the 0.6 mark?
Outgoing: no (0)

Incoming: Does the reported composite z-score for O=C1O[C@@H](c2ccccc2)[C@@H](c2ccccc2)N2[C@@H](c3ccc(O)cc3)[C@]3(C(=O)Nc4ccc(C#CC5=CCCCC5)cc43)[C@@H](C(=O)N3CCCCCCC3)[C@H]12 fall at or above the 0.6 mark?
Outgoing: yes (1)

Incoming: Does the reported composite z-score for C#CCN=C(N)N fall at or above the 0.6 mark?
Outgoing: yes (1)

Incoming: Does the reported composite z-score for C=CCC(OC(C)=O)[C@@H]1[C@@H](N(Cc2cccc3ccccc23)C(=O)c2ccc(C)cc2)c2cc(OCCCO)ccc2N1C(=O)c1ccc2ccccc2n1 (stereo not given in full) fall at or above the 0.6 mark?
Outgoing: yes (1)

====

target: Torsin-1A-interacting protein 1 (Homo sapiens) (UniProt Q5JTV8); assay: LAP1 binders from COS7 cell lysate, primary screen, small-molecule microarray, 635/667 nm fluorescence (AID 1116); settings: COS7-hLAP1 lysate binding, 635 nm fluorescence, higher = more signal
Sequence (Q5JTV8 whole entry, looked up): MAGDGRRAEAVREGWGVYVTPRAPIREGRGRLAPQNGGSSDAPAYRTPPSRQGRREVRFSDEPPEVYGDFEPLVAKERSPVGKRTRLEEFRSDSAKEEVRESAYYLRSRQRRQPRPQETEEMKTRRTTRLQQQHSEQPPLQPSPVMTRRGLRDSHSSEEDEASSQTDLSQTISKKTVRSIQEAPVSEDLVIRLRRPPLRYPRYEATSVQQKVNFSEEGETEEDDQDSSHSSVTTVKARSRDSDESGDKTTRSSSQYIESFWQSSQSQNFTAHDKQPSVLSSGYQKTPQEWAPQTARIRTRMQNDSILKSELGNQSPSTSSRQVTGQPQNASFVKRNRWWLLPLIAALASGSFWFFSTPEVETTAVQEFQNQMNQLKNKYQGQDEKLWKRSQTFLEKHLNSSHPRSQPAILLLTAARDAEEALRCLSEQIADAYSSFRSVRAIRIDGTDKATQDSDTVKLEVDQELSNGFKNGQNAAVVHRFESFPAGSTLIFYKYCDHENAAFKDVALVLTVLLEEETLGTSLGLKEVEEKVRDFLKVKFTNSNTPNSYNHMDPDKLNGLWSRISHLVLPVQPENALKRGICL
readout name: composite z-score

Incoming: Which composite z-score reading was recorded for the molecule COc1ccc(CC[C@H](O)c2cccc(OCC(=O)OC(C)(C)C)c2)cc1 ?
Outgoing: 1.27

Incoming: Which composite z-score reading was recorded for the molecule CN(C)C(=O)[C@]1(Cc2ccccc2CN=[N+]=[N-])N=C(c2ccc(OCCCO)cc2)O[C@@H]1c1ccccc1N=[N+]=[N-] ?
Outgoing: 0.609

Incoming: Which composite z-score reading was recorded for the molecule C=CCNC(=O)[C@H]1[C@@H]2C(=O)O[C@@H](c3ccccc3)[C@@H](c3ccccc3)N2[C@@H](c2ccccc2OCCO)[C@]12C(=O)N(C(=O)OCCOC)c1ccccc12 ?
Outgoing: 1.13

Incoming: Which composite z-score reading was recorded for the molecule CC1CC/C=C\[C@H]2OC34C=CCN(c5ccc(Cl)cc5)C(=O)[C@H]3N(CCCO)C(=O)[C@]4(C)C2C(=O)O1 (stereo partly drawn) ?
Outgoing: -1.06

Incoming: Which composite z-score reading was recorded for the molecule [N-]=[N+]=NCc1ccccc1C[C@]1(C(=O)N2CCCCC2)N=C(c2ccc(OCCCO)cc2)O[C@H]1c1ccccc1 ?
Outgoing: 1.11

Incoming: Which composite z-score reading was recorded for the molecule CCOC(=O)C1=CC[C@@H](c2ccccc2Cl)N(S(=O)(=O)c2ccc(C)cc2)[C@H]1c1cccc(OC)c1 ?
Outgoing: 0.111

Incoming: Which composite z-score reading was recorded for the molecule Cc1ccc(F)cc1S(=O)(=O)N[C@@H]1CCN(Cc2ccc3[nH]ccc3c2)C1 ?
Outgoing: 0.144

Incoming: Which composite z-score reading was recorded for the molecule CC(C)(C)N1CC=CC23O[C@@H]4/C=C\CCCOC(=O)C4[C@H]2C(=O)N(CCCCCCO)[C@@H]3C1=O (stereo partly drawn) ?
Outgoing: 1.24

Incoming: Which composite z-score reading was recorded for the molecule C=C(CCCC)/C(=C/C[C@H](OC(C)=O)c1cccc(OCCO)c1)c1cc(C(=O)OC)ccc1OC ?
Outgoing: 0.455

Incoming: Which composite z-score reading was recorded for the molecule CC(C)CNC(=O)[C@@H]1c2ccccc2C(=O)N(CC23CC4CC(CC(C4)C2)C3)[C@H]1c1ccc(CO)cc1 ?
Outgoing: 0.862

Incoming: Which composite z-score reading was recorded for the molecule COCCn1c(C(=O)N2CCCC2)cc2c1C[C@H]1CN(C(=O)c3ccccc3)[C@@](Cc3ccccc3)(C(=O)OC)[C@@H]21 ?
Outgoing: 1.12

Incoming: Which composite z-score reading was recorded for the molecule COc1ccc(C(O)C2C=CC3C(=O)N(C)C(=O)C3N2Nc2ccc([N+](=O)[O-])cc2[N+](=O)[O-])cc1OCc1ccccc1 (stereo not drawn) ?
Outgoing: 0.527

Incoming: Which composite z-score reading was recorded for the molecule C=CCC(OC(C)=O)[C@@H]1[C@@H](N(Cc2cccc3ccccc23)C(=O)c2ccc(C)cc2)c2cc(OCCCO)ccc2N1C(=O)c1ccc2ccccc2n1 (stereo partly drawn) ?
Outgoing: 0.482

Incoming: Which composite z-score reading was recorded for the molecule CC1(C)OC[C@@]23C=C(Br)[C@@H](C[C@H]12)[C@@]1(CO1)C3=O ?
Outgoing: 0.0611

Incoming: Which composite z-score reading was recorded for the molecule CC(C)C[C@@H]1NC(=O)[C@@H]2C[C@H](C(=O)O)[C@H](c3ccc(O)cc3)N2C1=O ?
Outgoing: 1.22

Incoming: Which composite z-score reading was recorded for the molecule C[N+](C)(C)CCCCCCNC(=O)[C@H]1C[C@H]2C(=O)NCC(=O)N2[C@H]1c1cccc(OCCO)c1 ?
Outgoing: 0.509

Incoming: Which composite z-score reading was recorded for the molecule CCCCC=C[C@@H](NC(=O)c1ccc(C(F)(F)F)cc1)c1ccccc1 ?
Outgoing: -0.946

Incoming: Which composite z-score reading was recorded for the molecule O=C1C2C=CC(C(O)c3cccc(O)c3)N(Nc3ccccc3F)C2C(=O)N1c1ccccc1 (stereo not drawn) ?
Outgoing: -0.165

Incoming: Which composite z-score reading was recorded for the molecule CC(=O)NCCCC[C@@H]1NC(=O)[C@@H]2C[C@H](C(=O)NCCCCCC[N+](C)(C)C)[C@H](c3ccc(O)cc3)N2C1=O ?
Outgoing: 0.343

Incoming: Which composite z-score reading was recorded for the molecule COCCOC(=O)N1C(=O)[C@@]2(c3ccccc31)[C@H](C(N)=O)[C@H]1C(=O)O[C@H](c3ccccc3)[C@H](c3ccccc3)N1[C@@H]2c1ccc(OCCO)cc1 ?
Outgoing: 0.905

Incoming: Which composite z-score reading was recorded for the molecule COCCOC(=O)N1C(=O)[C@@]2(c3cc(C#CCCO)ccc31)[C@H](C(=O)N1CCN(c3ncccn3)CC1)[C@H]1C(=O)O[C@H](c3ccccc3)[C@H](c3ccccc3)N1[C@@H]2c1ccc(O)cc1 ?
Outgoing: 0.894

Incoming: Which composite z-score reading was recorded for the molecule O=C1C2C=CC(C(O)c3cccs3)N(Nc3ccccc3)C2C(=O)N1c1ccccc1 (stereo not drawn) ?
Outgoing: 0.403

Incoming: Which composite z-score reading was recorded for the molecule CC(C)C[C@@H]1NC(=O)[C@@]23C(=O)N[C@@H](Cc4ccccc4)C2[C@H](C)[C@@]2(C)O[C@H]2C3/C=C/C/C=C\CNC(=O)[C@@H](CC(C)C)NC1=O (stereo partly drawn) ?
Outgoing: 0.403

Incoming: Which composite z-score reading was recorded for the molecule COCCOC(=O)N1C(=O)[C@@]2(c3cc(C#CC4=CCCCC4)ccc31)[C@H](c1ccccc1OCCO)N1[C@H](c3ccccc3)[C@H](c3ccccc3)OC(=O)[C@H]1[C@@H]2C(N)=O ?
Outgoing: 0.383

Incoming: Which composite z-score reading was recorded for the molecule COC(=O)C(CC#Cc1ccc2c(c1)[C@]1(C(=O)N2)[C@H](c2ccc(O)cc2)N2[C@H](c3ccccc3)[C@H](c3ccccc3)OC(=O)[C@H]2[C@@H]1C(=O)N1CCc2cc(OC)c(OC)cc2C1)C(=O)OC ?
Outgoing: 1.25

Incoming: Which composite z-score reading was recorded for the molecule C=CCC(OC(C)=O)[C@@H]1[C@@H](N(Cc2ccc(-c3ccccc3)cc2)C(=O)c2ccc(C)cc2)c2cc(OCCCO)ccc2N1C(=O)c1ccc2ccccc2c1 (stereo partly drawn) ?
Outgoing: 0.202

Incoming: Which composite z-score reading was recorded for the molecule COc1ccc(NN2C(C(O)c3cc(C(F)(F)F)cc(C(F)(F)F)c3)C=CC3C(=O)N(C4CCCCC4)C(=O)C32)cc1 (stereo not drawn) ?
Outgoing: 1.06

Incoming: Which composite z-score reading was recorded for the molecule CN(C)CCCC[C@@H]1NC(=O)[C@H]2C[C@@H](C(=O)NCc3ccc(F)cc3)[C@@H](c3ccc(O)cc3)N2C1=O ?
Outgoing: 1.03

The measurements presented in this section are drawn from PubChem BioAssay.
